- MEASURED_TARGET: T1, canine CD20 (canine, UniProt Q3C2E2 1-297)
- T1 chain: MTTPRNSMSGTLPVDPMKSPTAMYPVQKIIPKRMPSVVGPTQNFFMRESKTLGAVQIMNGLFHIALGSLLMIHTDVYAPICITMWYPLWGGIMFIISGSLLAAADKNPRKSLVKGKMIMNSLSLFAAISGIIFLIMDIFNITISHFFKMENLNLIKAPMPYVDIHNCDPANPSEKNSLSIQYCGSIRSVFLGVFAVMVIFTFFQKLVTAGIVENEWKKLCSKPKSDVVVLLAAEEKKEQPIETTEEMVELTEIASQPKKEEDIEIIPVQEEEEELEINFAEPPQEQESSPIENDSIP
- EXPERIMENTAL_DETAILS: cell-based or functional assay
MEASUREMENT_KIND: ADCC EC50 (nM)
// return numeric value only (unit: nM, not printed)

>>> endpoint_value("PMX070 (antibody, V domains shown) VH: EMQLVESGGDLVKPGGSLRLSCVASGFTFSRYHMSWVRQAPGKGLQWVAYINSGGSPTNYADAVKGRFTISRDNAKNTLYLQMNSLRAEDTAVYYCTTYDQWGQGTLVTVSS VL: SYVLTQLPSKSVTLKQPAHITCGGDNIGSKSVHWYQQKLGQAPVLIIYYDSSRPTGIPERFSGANSGNTATLTISGALAEDEADYYCQVWDTSANVFGGGTHLTVL")
0.29
>>> endpoint_value("PMX072 (antibody, V domains shown) VH: EVQLVESGGDLVKPGGSLRLSCVASGFTFSRYHMSWVRQAPGKGLQWVAFINTGRSSTNYADAVAGRFTISRDNAKNTLYLQMNSLRAEDTAVYYCSTLDYWGQGTLVTVSS VL: SYVLTQLPSKNVTLKQPAHITCGGDNIGSKSVHWYQQKLGQAPVLIIYYDSSRPTGIPERFSGANSGNTATLTISGALAEDEADYYCQVWDSSANVFGGGTHLTVL")
0.18
>>> endpoint_value("PMX074 (antibody, V domains shown) VH: EVQLVESGGDLVKPGGSLRLSCVASGFTFSRYYMTWVRQAPGKGLQWVAYINSDRRSTTYADAVKGRFTISRDNAKNTLYLQMNSLRAEDTAVYYCTTLEYWGQGTLVTVSS VL: SYVLTQLPSKNVTLKQPAHITCGGDNIGSKSVHWYQQKLGQAPVLIIYYDSRRPTGIPERFSGANSGNTATLTINGALAEDEADYYCQVWDSSANVFGGGTHLTVL")
0.12

Tell me ADCC EC50 reported for PMX069 (antibody, V domains shown) VH: EMQLVESGGALVKPGGSLRLSCVASGFTFRRYHMSWVRQAPGQGLQWVAYIDSDGSPTSYGDSVKGRFTISRDNAKNTLFLQMNSLRVDDTAVYYCTTLDYWGRGTLVTVSS VL: SYVLTQVPSKNVTLKQPAHITCGGDNIGGKSVHWYQQKLGQAPLLIIYYDTRRPTGIPERFSGANSGNTATLTISRALAEDEADYYCQVWDSSGNVFGGGTHLTVI
0.09

Query ADCC EC50 for PMX066 (antibody, V domains shown) VH: AVQLVESGGDLVKPGGSLRLSCVASGITFSRYHMSWVRQAPGKGLQWVAYINSGGSATSYTDAVKGRFSISRDNGKNTLYLQMNSLRVEDSAVYYCTTLDLWGQGTLVTVSS VL: SYVLTQLPSKNVTLKQPAHITCGGDNIGSKSVHWYQQKLGQAPVLIIYYDSRRPTGIPERFSGANSGNTATLTINGALAEDEADYYCQMWDSSANVFGGGTHLTVL
0.15
